# assayed.system: CDK2/Cyclin E1(14-475) (Homo sapiens)
# experimental.protocol: HotSpot kinase inhibition assay (radiometric, Reaction Biology Corporation)
# Type: biochemical
# experimental.setup: 10 μM ATP, class symbols A-D
readout.type: IC50

CNC(=O)[C@H](CCCc1ccccc1)NC(=O)C1CN(C(=O)Cc2c[nH]c3cc(Cl)ccc23)CC2CN(C(=O)c3cncc(OC)n3)CC21 (stereo partly drawn) [I-42] : > 100 µM
CNC(=O)[C@@H](C)NC(=O)C1CN(C(=O)Cc2c[nH]c3cc(Cl)ccc23)CC2CN(C(=O)c3ccc(OC(C)C)c(OC)c3)CC21 (stereo partly drawn) [I-124] : > 100 µM

Moving on to another compound below.
Give the measured IC50 of CNC(=O)[C@H](Cc1ccccc1)NC(=O)C1CN(C(=O)Cc2c[nH]c3cc(Cl)ccc23)CC2CN(C(=O)c3ccc(OC(C)C)c(OC)c3)CC21 (stereo partly drawn) [I-122] . 10 to 100 µM
